- System: M14
- assayInfo: Growth inhibition of human M14 cells after 48 hrs by sulforhodamine B assay
- Assay type: functional
- assayConditions: M14, 48 h, read-out: pTGI (converted)
Output Fulfilled for records whose TGI is lower than 30 µM, Not fulfilled for records at or above 30 µM.

Field: example entries. Status: answers known.
Exercise: Consider `COc1cc(/C=C/c2ccc3c(c2)C[C@@H]2C(C)(C)[C@H](O)CC[C@@]2(C)O3)cc(O)c1C/C=C(\C)CCC=C(C)C` . Does its TGI lie strictly below 30 µM?
Solution: Fulfilled

Exercise: Entry `COc1cc(/C=C/c2cc3c(c(SC)c2)O[C@]2(C)CC[C@@H](O)C(C)(C)[C@H]2C3)cc(O)c1C/C=C(\C)CCC=C(C)C` please
Solution: Fulfilled

Exercise: Entry `COc1cc(/C=C/c2cc(O)c3c(c2)C[C@@H]2C(C)(C)[C@H](O)CC[C@@]2(C)O3)cc(O)c1C/C=C(\C)CCC=C(C)C` please
Solution: Fulfilled

Exercise: Entry `COCOc1cc(/C=C/c2cc(CO)c3c(c2)C[C@@H]2C(C)(C)[C@H](O)CC[C@@]2(C)O3)cc(OC)c1C/C=C(\C)CCC=C(C)C` please
Solution: Fulfilled

More entries:
Exercise: Consider `COCOc1cc(/C=C/c2cc(C=O)c3c(c2)C[C@@H]2C(C)(C)[C@H](O)CC[C@@]2(C)O3)cc(OC)c1C/C=C(\C)CCC=C(C)C` . Does its TGI lie strictly below 30 µM?
Solution: Not fulfilled

Exercise: Entry `COc1cc(/C=C/c2cc(F)c3c(c2)C[C@@H]2C(C)(C)[C@H](O)CC[C@@]2(C)O3)cc(O)c1C/C=C(\C)CCC=C(C)C` please
Solution: Fulfilled

---

- assayInfo: Growth inhibition of human Hs 578T cells after 48 hrs by sulforhodamine B assay
- Format: functional
- assayConditions: read-out: pTGI (converted)
The following compounds are shown together with reported TGI values.
A number alone suffices; assume µM.

Exercise: I have this compound here, `COc1cc(/C=C/c2cc(O)c3c(c2)C[C@@H]2C(C)(C)[C@H](O)CC[C@@]2(C)O3)cc(O)c1C/C=C(\C)CCC=C(C)C` , and I need its recorded TGI.
Solution: 0.776

Exercise: Entry `COc1cc(/C=C/c2cc3c(c(SC)c2)O[C@]2(C)CC[C@@H](O)C(C)(C)[C@H]2C3)cc(O)c1C/C=C(\C)CCC=C(C)C` please
Solution: 19.5

Exercise: Entry `COc1cc(/C=C/c2ccc3c(c2)C[C@@H]2C(C)(C)[C@H](O)CC[C@@]2(C)O3)cc(O)c1C/C=C(\C)CCC=C(C)C` please
Solution: 93.3

---

The following molecules are shown together with reported GI50 values.
- Tested on: SW-620
- assayInfo: Growth inhibition of human SW620 cells after 48 hrs by sulforhodamine B assay
- Assay type: functional
- assayConditions: SW-620, 48 h
A number alone suffices; assume nM.

Worked examples, 3 molecules total:
Exercise: I have this molecule here, `COc1cc(/C=C/c2cc3c(c(OC)c2)O[C@]2(C)CC[C@@H](O)C(C)(C)[C@H]2C3)cc(O)c1C/C=C(\C)CCC=C(C)C` , and I need its recorded GI50.
Solution: 1230

Exercise: Entry `COc1cc(/C=C/c2cc(F)c3c(c2)C[C@@H]2C(C)(C)[C@H](O)CC[C@@]2(C)O3)cc(O)c1C/C=C(\C)CCC=C(C)C` please
Solution: 3020

Exercise: Entry `COc1cc(/C=C/c2ccc3c(c2)C[C@@H]2C(C)(C)[C@H](O)CC[C@@]2(C)O3)cc(O)c1C/C=C(\C)CCC=C(C)C` please
Solution: 11700

More entries:
Exercise: I have this molecule here, `COCOc1cc(/C=C/c2cc(CO)c3c(c2)C[C@@H]2C(C)(C)[C@H](O)CC[C@@]2(C)O3)cc(OC)c1C/C=C(\C)CCC=C(C)C` , and I need its recorded GI50.
Solution: 1950

---

The following compounds are shown together with reported LC50 values.
- Tested on: NCI/ADR-RES
- assayInfo: Growth inhibition of human NCI/ADR-RES cells after 48 hrs by sulforhodamine B assay
- Type: functional
A number alone suffices; assume µM.

Worked examples, 2 compounds total:
Exercise: I have this compound here, `COCOc1cc(/C=C/c2cc(CO)c3c(c2)C[C@@H]2C(C)(C)[C@H](O)CC[C@@]2(C)O3)cc(OC)c1C/C=C(\C)CCC=C(C)C` , and I need its recorded LC50.
Solution: 95.5

Exercise: Entry `COc1cc(/C=C/c2cc(F)c3c(c2)C[C@@H]2C(C)(C)[C@H](O)CC[C@@]2(C)O3)cc(O)c1C/C=C(\C)CCC=C(C)C` please
Solution: 50.1

Proceed to the following item.
Exercise: I have this compound here, `COc1cc(/C=C/c2cc(O)c3c(c2)C[C@@H]2C(C)(C)[C@H](O)CC[C@@]2(C)O3)cc(O)c1C/C=C(\C)CCC=C(C)C` , and I need its recorded LC50.
Solution: 58.9

---

The following compounds are shown together with reported LC50 values.
- System: OVCAR-4
- assayInfo: Growth inhibition of human OVCAR4 cells after 48 hrs by sulforhodamine B assay
- Format: functional
- assayConditions: OVCAR-4, 48 h

Worked examples, 2 compounds total:
Exercise: What reported LC50 corresponds to `COc1cc(/C=C/c2cc3c(c(SC)c2)O[C@]2(C)CC[C@@H](O)C(C)(C)[C@H]2C3)cc(O)c1C/C=C(\C)CCC=C(C)C` on OVCAR-4?
Solution: > 100 µM

Exercise: Entry `COCOc1cc(/C=C/c2cc(C=O)c3c(c2)C[C@@H]2C(C)(C)[C@H](O)CC[C@@]2(C)O3)cc(OC)c1C/C=C(\C)CCC=C(C)C` please
Solution: > 100 µM

Proceed to the following item.
Exercise: What reported LC50 corresponds to `COc1cc(/C=C/c2cc(O)c3c(c2)C[C@@H]2C(C)(C)[C@H](O)CC[C@@]2(C)O3)cc(O)c1C/C=C(\C)CCC=C(C)C` on OVCAR-4?
Solution: 63.1 µM

---

The following compounds are shown together with reported TGI values.
- Tested on: LOX IMVI
- assayInfo: Growth inhibition of human LOXIMVI cells after 48 hrs by sulforhodamine B assay
- Format: functional
- assayConditions: read-out: pTGI (converted)
A number alone suffices; assume µM.

Worked examples, 2 compounds total:
Exercise: I have this compound here, `COc1cc(/C=C/c2cc3c(c(OC)c2)O[C@]2(C)CC[C@@H](O)C(C)(C)[C@H]2C3)cc(O)c1C/C=C(\C)CCC=C(C)C` , and I need its recorded TGI.
Solution: 5.01

Exercise: Entry `COCOc1cc(/C=C/c2cc(CO)c3c(c2)C[C@@H]2C(C)(C)[C@H](O)CC[C@@]2(C)O3)cc(OC)c1C/C=C(\C)CCC=C(C)C` please
Solution: 3.02

Proceed to the following item.
Exercise: I have this compound here, `COc1cc(/C=C/c2ccc3c(c2)C[C@@H]2C(C)(C)[C@H](O)CC[C@@]2(C)O3)cc(O)c1C/C=C(\C)CCC=C(C)C` , and I need its recorded TGI.
Solution: 11.5

---

The following compounds are shown together with reported GI50 values.
- Tested on: A549
- assayInfo: Growth inhibition of human A549 cells after 48 hrs by sulforhodamine B assay
- Assay type: functional
- assayConditions: A549, 48 h, read-out: GI50

Exercise: I have this compound here, `COc1cc(/C=C/c2cc3c(c(OC)c2)O[C@]2(C)CC[C@@H](O)C(C)(C)[C@H]2C3)cc(O)c1C/C=C(\C)CCC=C(C)C` , and I need its recorded GI50.
Solution: 2450 nM

Exercise: Entry `COCOc1cc(/C=C/c2cc(CO)c3c(c2)C[C@@H]2C(C)(C)[C@H](O)CC[C@@]2(C)O3)cc(OC)c1C/C=C(\C)CCC=C(C)C` please
Solution: 1410 nM

Exercise: Entry `COc1cc(/C=C/c2ccc3c(c2)C[C@@H]2C(C)(C)[C@H](O)CC[C@@]2(C)O3)cc(O)c1C/C=C(\C)CCC=C(C)C` please
Solution: 13200 nM

More entries:
Exercise: I have this compound here, `COc1cc(/C=C/c2cc(O)c3c(c2)C[C@@H]2C(C)(C)[C@H](O)CC[C@@]2(C)O3)cc(O)c1C/C=C(\C)CCC=C(C)C` , and I need its recorded GI50.
Solution: 720 nM

---

- Tested on: SF-268
- assayInfo: Growth inhibition of human SF268 cells after 48 hrs by sulforhodamine B assay
- Assay type: functional
- assayConditions: SF-268, 48 h
The following molecules are shown together with reported GI50 values.
A number alone suffices; assume µM.

Worked examples, 3 molecules total:
Exercise: I have this molecule here, `COc1cc(/C=C/c2ccc3c(c2)C[C@@H]2C(C)(C)[C@H](O)CC[C@@]2(C)O3)cc(O)c1C/C=C(\C)CCC=C(C)C` , and I need its recorded GI50.
Solution: 14.8

Exercise: Entry `COCOc1cc(/C=C/c2cc(CO)c3c(c2)C[C@@H]2C(C)(C)[C@H](O)CC[C@@]2(C)O3)cc(OC)c1C/C=C(\C)CCC=C(C)C` please
Solution: 4.07

Exercise: Entry `COc1cc(/C=C/c2cc(O)c3c(c2)C[C@@H]2C(C)(C)[C@H](O)CC[C@@]2(C)O3)cc(O)c1C/C=C(\C)CCC=C(C)C` please
Solution: 1.35

More entries:
Exercise: I have this molecule here, `COc1cc(/C=C/c2cc(F)c3c(c2)C[C@@H]2C(C)(C)[C@H](O)CC[C@@]2(C)O3)cc(O)c1C/C=C(\C)CCC=C(C)C` , and I need its recorded GI50.
Solution: 10.5

Exercise: Entry `COc1cc(/C=C/c2cc3c(c(SC)c2)O[C@]2(C)CC[C@@H](O)C(C)(C)[C@H]2C3)cc(O)c1C/C=C(\C)CCC=C(C)C` please
Solution: 7.41

Exercise: Entry `COCOc1cc(/C=C/c2cc(C=O)c3c(c2)C[C@@H]2C(C)(C)[C@H](O)CC[C@@]2(C)O3)cc(OC)c1C/C=C(\C)CCC=C(C)C` please
Solution: 11

Exercise: Entry `COc1cc(/C=C/c2cc3c(c(OC)c2)O[C@]2(C)CC[C@@H](O)C(C)(C)[C@H]2C3)cc(O)c1C/C=C(\C)CCC=C(C)C` please
Solution: 2.45

Each recorded value in this set is attributed to ChEMBL document CHEMBL1926642.
